- Test system: Plasmodium falciparum
- assay_summary: GSK_TCMDC: Inhibition of Plasmodium falciparum Dd2 in whole red blood cells, using parasite LDH activity as an index of growth. Test compounds present at 2uM
- Assay type: functional
Kindly return true (1) if reported Inhibition is no lower than 40%; return false (0) if it is lower.

Before answering, review these 5 worked examples.
O=C(COC(=O)c1cccc(S(=O)(=O)N2CCc3ccccc32)c1)NNC(=O)c1cccs1	false (0)
O=[N+]([O-])c1ccccc1/C=N/Nc1ccnc2ccc(C(F)(F)F)cc12	false (0)
CC(C)N1CCC(N(Cc2ccc(-c3ccc(C(F)(F)F)cc3)cc2)C(=O)CCCn2c(CCc3cccc(F)c3F)nc(=O)c3ccccc32)CC1.O=C(O)C(O)C(O)C(=O)O	true (1)
O=C(Nc1cc(C(F)(F)F)cc(C(F)(F)F)c1)c1cc(Cl)ccc1O [IMD-0354]	true (1)
Cn1cncc1-c1ccc2ncnc(Nc3ccc(OCc4ccccc4)cc3)c2c1	true (1)

Does "Cc1ccc(NC(=O)c2cccc(CN3CCCN(Cc4cccc(O)c4)CC3)c2)cc1F.O=C(O)C(F)(F)F" have a reported Inhibition of at least 40%?
true (1)

Does "O=C(Cc1ccc(Nc2nccc(Nc3cccc4[nH]ncc34)n2)cc1)Nc1ccc(C(F)(F)F)cc1" have a reported Inhibition of at least 40%?
true (1)

Does "Cc1nc2nc(N)nc(N)c2c(C)c1Cc1cccc(C(F)(F)F)c1.Cl" have a reported Inhibition of at least 40%?
false (0)

Does "COc1cc(-c2ccccc2)ccc1C(=O)Nc1ccc2c(c1)N(C)CCC2" have a reported Inhibition of at least 40%?
true (1)

Does "FC(F)(F)c1ccc2[nH]ccc(=NN=CC=Cc3ccccc3)c2c1" have a reported Inhibition of at least 40%?
false (0)

Does "Fc1ccc2[nH]cc(CCNCc3ccc(-c4cccc(-c5nc6ccccc6[nH]5)c4)cc3)c2c1.O=C(O)C(F)(F)F" have a reported Inhibition of at least 40%?
true (1)

Does "N=C(N)NC(=O)Nc1ccc(Cl)c(Cl)c1" have a reported Inhibition of at least 40%?
false (0)

All figures here come from ChEMBL document CHEMBL1157539.
